experiment: NCI Yeast Anticancer Drug Screen. Data for the mec2-1 strain (AID 157); settings: S. cerevisiae mec2-1 strain, at 50.0 µM (retest, dose inferred, filed as 5.0), active compounds read high
Compounds without any hit were thinned out: in the full panel of roughly 79,000, 15% have a hit.
PROPERTY MEASURED: growth inhibition (%)
Respond numerically; units are % and should not be typed.

Answered cases to consult:
MOLECULE	growth inhibition (%)
CCCCCCC(O)CCOC(C)=O (configuration not stated)	0
CC1(C)CC(=O)C2=C(C1)OC1=C(C(=O)CC(C)(C)C1)C2CC(c1ccccc1)c1ccc(O)c(O)c1O (configuration not stated)	-8

Returns the measured growth inhibition for the input molecule. Input: O=C1c2ccccc2C(=O)c2cc(S(=O)(=O)Cl)ccc21
99

Form field: reported growth inhibition of CN(C)CCCCCNc1c2ccccc2nc2cccc([N+](=O)[O-])c12
97

Any idea what its growth inhibition is? The molecule is O=C1NC(c2ccccc2)(c2ccccc2)C(=O)N1SC(Cl)(Cl)Cl
99

Record request: growth inhibition value, item Cc1c(-c2ccccc2)ccnc1/C=N/NC(=S)Nc1ccc(N(C)C)cc1
96

The origin of these recorded values is PubChem BioAssay (NCI).
